Please provide measured Percent Effect for the entries that follow.
# System name: AMP-activated protein kinase, AMPK (Homo sapiens) (UniProt P54646+O43741+P54619+Q9UGJ0+Q9Y478+Q13131+Q9UGI9)
# Assay comment: AMP-dependent Kinase enzyme assay. An in vitro enzyme assay that detects ADP turnover that is directly proportional to AMPK activity. This uses naive AMPK that is activated during the assay with MK-8722
# Type: functional
# Design: scale not given: direction of the effect not stated beside the values
# Experimental parameters: 30 µM
Please reply with the bare figure in % and do not write the unit itself.

Data request: Return the recorded Percent Effect value; entry: CCC1c2ccccc2CCN1CCCS(C)(=O)=O (centres undefined)
Data returned: -1.94

Data request: Return the recorded Percent Effect value; entry: Cc1cc(N2CCOC(c3ccccn3)C2)nc(N)n1 (centres undefined)
Data returned: 10.1

Data request: Return the recorded Percent Effect value; entry: CCN(CC)C(CNC(=O)c1ccnc(N(C)C)c1)c1ccsc1 (centres undefined)
Data returned: -4.85

Data request: Return the recorded Percent Effect value; entry: CC(C)(C)c1ccc(C(=O)C2CCCN(C(=O)CNS(C)(=O)=O)C2)cc1 (centres undefined)
Data returned: 0.896
